COMPOUND: CC1(C)CCC(C)(C)O1
boiling point: 112 °C
//
COMPOUND: Cc1ccc2c(c1)CCCC2(C)C
boiling point: 240 °C
//
COMPOUND: CCc1ccccc1Cl
boiling point: 178 °C
//
COMPOUND: Nc1ccc(Cl)cc1Cl
boiling point: 245 °C
//
COMPOUND: CC(CC=O)CC(C)(C)C (configuration not stated)
boiling point: 173 °C
//
COMPOUND: CCCCCCCCCCCCCCCCCCCCCCCCCCCCCCC
boiling point: 458 °C
//
COMPOUND: C=C(C)C=CC(=C)C
boiling point: 146 °C
//
COMPOUND: Oc1c(Br)cccc1Br
boiling point: 255 °C
//
COMPOUND: C1CSCCO1
boiling point: 147 °C
//
COMPOUND: COc1cccc(CC(C)=O)c1
boiling point: 259 °C
//
COMPOUND: CCCCCCCC(C)=O
boiling point: 195 °C
//
COMPOUND: COC(=O)c1ccc(C)cc1O
boiling point: 243 °C
//
COMPOUND: CCCCCCCCCCCCCCCCCCI
boiling point: 383 °C
//
COMPOUND: c1ccc2cc(Nc3ccc4ccccc4c3)ccc2c1
boiling point: 471 °C
//
COMPOUND: CCCCCCOCC
boiling point: 143 °C
//
COMPOUND: COc1cccc(OC)c1OC
boiling point: 235 °C
//
COMPOUND: CC(CCC(C)C)=NO
boiling point: 196 °C

----------
Values of boiling point greater than or equal to 200 °C map to True; values below map to False.

MOLECULE: CCCCCCCC(=O)OCC
CAT: True
--
MOLECULE: COCCCl
CAT: False
--
MOLECULE: Cc1ccc(N=Cc2ccccc2)cc1
CAT: True
--
MOLECULE: COc1c(Br)cc(Br)cc1Br
CAT: True
--
MOLECULE: CCCC(CC)C(C)C (configuration not stated)
CAT: False
--
MOLECULE: ClCCOCOCCCl
CAT: True
--
MOLECULE: CSc1ccccc1N
CAT: True
--
MOLECULE: FC(F)(F)C(Cl)C(F)(F)F
CAT: False
--
MOLECULE: CC(=O)C1CCC1
CAT: False
--
MOLECULE: CN(C)c1ccccc1N
CAT: True
--
MOLECULE: C=CC(C)C(C)CC (configuration not stated)
CAT: False
--
MOLECULE: CCC(CC)C(C)(C)CC
CAT: False
--
MOLECULE: CC1=CCC(C(C)C)=CC1
CAT: False
--
MOLECULE: N#Cc1cccs1
CAT: False
--
MOLECULE: CC(C)(O)CCl
CAT: False
--
MOLECULE: FC(F)(F)C(F)(F)C(F)(F)C(F)(F)I
CAT: False
--
MOLECULE: O=CC(Br)(Br)Br
CAT: False
--
MOLECULE: CCCCCCCCCCCCCCCCC(=O)O
CAT: True
--
MOLECULE: CCCCCCCCCCCCCCCCCCS
CAT: True
--
MOLECULE: CCOc1ccccc1[N+](=O)[O-]
CAT: True
--
MOLECULE: CCC(C)SC(C)CC (configuration not stated)
CAT: False
--
MOLECULE: CCCc1ccco1
CAT: False
--
MOLECULE: CCCCCCCCCCCCCCCC(C)C
CAT: True
--
MOLECULE: CCN=C=O
CAT: False
--
MOLECULE: O=[N+]([O-])c1ccc(I)cc1
CAT: True
--
MOLECULE: CCCCC(CC)COP(=O)(Oc1ccccc1)Oc1ccccc1 (configuration not stated)
CAT: True
--
MOLECULE: C=CCC(O)CC=C
CAT: False
--
MOLECULE: CCOC(=O)c1cccc2ccccc12
CAT: True
--
MOLECULE: CC(=O)C1CCCC1
CAT: False
--
MOLECULE: CCC(C)(C)C(C)C
CAT: False
--
MOLECULE: Cc1ccccc1CCO
CAT: True
--
MOLECULE: CC(C)CCOC(=O)OCCC(C)C
CAT: True
--
MOLECULE: C=CCC(=O)OCC
CAT: False
